Molecular target: BaF3-ETV6-NTRK2 (Homo sapiens, UniProt Q16620)
Construct: fused on or other part: P41212 (Transcription factor ETV6)
Sequence (Q16620 538-822 limits assumed): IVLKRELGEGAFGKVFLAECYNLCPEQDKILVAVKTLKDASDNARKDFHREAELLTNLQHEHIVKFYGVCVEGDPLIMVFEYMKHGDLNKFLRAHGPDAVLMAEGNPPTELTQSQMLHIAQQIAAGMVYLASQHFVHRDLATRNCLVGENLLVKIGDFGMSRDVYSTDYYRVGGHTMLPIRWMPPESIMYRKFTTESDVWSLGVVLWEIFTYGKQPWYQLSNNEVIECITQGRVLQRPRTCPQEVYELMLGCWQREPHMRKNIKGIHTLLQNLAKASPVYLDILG
Test: Cell proliferation inhibition, Ba/F3-TRKs stable strain (CCK-8)
Details: 72 hours, read-out: cell viability IC50 ETV6-NTRK2
measurement label: IC50

Some solved cases for reference:
> print(dat)
                                   molecule  measurement.label     obs.value
1  Cc1c(C#Cc2cnc3ccc(N4CCOCC4)nn23)cccc1C(=O)Nc1cccc(C(F)(F)F)c1 [XS3-23]               IC50  10 to 100 nM
2  Cc1c(C#Cc2cnc3ccc(N4CCOCC4)nn23)cccc1C(=O)Nc1cc(CN2CCN(C)CC2)cc(C(F)(F)F)c1 [XS3-68]               IC50  10 to 100 nM

// field: IC50; key: COCCNc1ccc2ncc(C#Cc3cccc(C(=O)Nc4cc(Cl)cc(C(F)(F)F)c4)c3C)n2n1 [XS3-135] ; value = 100 to 1000 nM

// field: IC50; key: Cc1c(C#Cc2cnc3ccc(NCCN4CCOCC4)nn23)cccc1C(=O)Nc1cc(Cl)cc(C(F)(F)F)c1 [XS3-53] ; value = 100 to 1000 nM

###

Items are presented alongside their recorded IC50.
Biological target: BaF3-ETV6-NTRK2 (Homo sapiens, UniProt Q16620)
Construct: fused on or other part: P41212 (Transcription factor ETV6)
Assay: Cell proliferation inhibition, Ba/F3-TRKs stable strain (CCK-8)
Conditions: 72 hours, read-out: cell viability IC50 ETV6-NTRK2

> print(dat)
                                   molecule  measurement.label       obs.value
1  Cc1c(C#Cc2cnc3ccc(N4CCC(N5CCOCC5)CC4)nn23)cccc1C(=O)Nc1cc(Cl)cc(C(F)(F)F)c1 [XS3-130]               IC50    10 to 100 nM
2  Cc1c(C#Cc2cnc3ccc(N4CCN(C)CC4)nn23)cccc1C(=O)Nc1cc(Cl)cc(C(F)(F)F)c1 [XS3-51]               IC50  100 to 1000 nM
3  Cc1cn(-c2cc(NC(=O)c3cccc(C#Cc4cnc5ccc(N6CCOCC6)nn45)c3C)cc(C(F)(F)F)c2)cn1 [XS3-91]               IC50    10 to 100 nM

// field: IC50; key: Cc1c(C#Cc2cnc3ccc(N4CCOCC4)nn23)cccc1C(=O)Nc1cc(C(F)(F)F)cc(C(F)(F)F)c1 [XS4-76] ; value = 10 to 100 nM

// field: IC50; key: Cc1c(C#Cc2cnc3ncccn23)cccc1C(=O)Nc1cc(CN2CCN(C)CC2)cc(C(F)(F)F)c1 [XS2-161] ; value = > 1000 nM

// field: IC50; key: CC(=O)N1CCN(c2ccc3ncc(C#Cc4cccc(C(=O)Nc5cc(Cl)cc(C(F)(F)F)c5)c4C)n3n2)CC1 [XS3-54] ; value = 10 to 100 nM

// field: IC50; key: Cc1c(C#Cc2cnc3ccc(N4CCC(N(C)C)CC4)nn23)cccc1C(=O)Nc1cc(Cl)cc(C(F)(F)F)c1 [XS3-56] ; value = 100 to 1000 nM

// field: IC50; key: Cc1c(C#Cc2cnc3cccnn23)cccc1C(=O)Nc1cccc(C(F)(F)F)c1 [XS2-106] ; value = 100 to 1000 nM

// field: IC50; key: Cc1c(C#Cc2cnc3ccc(N4CCC(N)CC4)nn23)cccc1C(=O)Nc1cc(Cl)cc(C(F)(F)F)c1 [XS3-131] ; value = 100 to 1000 nM

// field: IC50; key: Cc1cc(NC(=O)c2cccc(C#Cc3cnc4ccc(N5CCOCC5)nn34)c2C)cc(C(F)(F)F)c1 [XS4-81] ; value = 10 to 100 nM

// field: IC50; key: Cc1c(C#Cc2cnc3ccc(N4CCC(C)(O)CC4)nn23)cccc1C(=O)Nc1cc(Cl)cc(C(F)(F)F)c1 [XS3-153] ; value = 10 to 100 nM

// field: IC50; key: COc1cc(NC(=O)c2cccc(C#Cc3cnc4ccc(N5CCOCC5)nn34)c2C)cc(C(F)(F)F)c1 [XS4-72] ; value = 10 to 100 nM

// field: IC50; key: Cc1c(C#Cc2cnc3ccc(N4CC[C@H](O)C4)nn23)cccc1C(=O)Nc1cc(CN2CCN(C)CC2)cc(C(F)(F)F)c1 [XS3-36] ; value = 10 to 100 nM

// field: IC50; key: Cc1c(C#Cc2cnc3ccc(N(C)CCN(C)C)nn23)cccc1C(=O)Nc1cc(Cl)cc(C(F)(F)F)c1 [XS3-134] ; value = 100 to 1000 nM

// field: IC50; key: Cc1c(C#Cc2cnc3ccc(N4CCN(C)[C@H](C)C4)nn23)cccc1C(=O)Nc1cc(Cl)cc(C(F)(F)F)c1 [XS3-52] ; value = 100 to 1000 nM

###

Target: BaF3-ETV6-NTRK3-G623R (Homo sapiens, UniProt Q16288, G623R)
Construct: constructed pCDNA3.1(+) plasmid vector carrying genes such as; fused on or other part: P41212 (Transcription factor ETV6)
Sequence (Q16288 whole entry G623R, the tested form may be a part): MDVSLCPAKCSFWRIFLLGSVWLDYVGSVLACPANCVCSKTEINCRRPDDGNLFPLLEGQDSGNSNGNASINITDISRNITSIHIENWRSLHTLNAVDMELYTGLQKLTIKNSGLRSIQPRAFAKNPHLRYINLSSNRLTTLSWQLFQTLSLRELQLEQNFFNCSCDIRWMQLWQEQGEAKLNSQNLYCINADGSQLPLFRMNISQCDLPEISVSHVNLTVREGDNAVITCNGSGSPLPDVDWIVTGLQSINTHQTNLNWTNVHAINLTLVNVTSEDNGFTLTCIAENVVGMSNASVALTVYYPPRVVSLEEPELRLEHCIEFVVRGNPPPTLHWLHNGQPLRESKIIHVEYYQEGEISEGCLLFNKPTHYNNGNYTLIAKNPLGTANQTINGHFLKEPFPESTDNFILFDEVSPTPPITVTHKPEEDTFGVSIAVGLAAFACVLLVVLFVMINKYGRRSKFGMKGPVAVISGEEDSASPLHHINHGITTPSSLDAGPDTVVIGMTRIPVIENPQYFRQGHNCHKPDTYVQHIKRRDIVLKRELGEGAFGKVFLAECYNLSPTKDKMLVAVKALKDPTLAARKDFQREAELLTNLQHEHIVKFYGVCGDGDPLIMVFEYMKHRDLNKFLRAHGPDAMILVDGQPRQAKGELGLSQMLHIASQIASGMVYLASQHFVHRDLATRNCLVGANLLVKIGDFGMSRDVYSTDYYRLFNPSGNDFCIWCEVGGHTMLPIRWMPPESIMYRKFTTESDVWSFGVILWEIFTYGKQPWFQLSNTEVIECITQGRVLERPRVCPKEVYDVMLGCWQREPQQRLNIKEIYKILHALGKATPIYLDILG
Test: Drug-resistant cell proliferation inhibition (CCK-8)
Settings: 72 hours, read-out: drug-resistant cell viability IC50
pIC50: −log10 of the molar value.
measurement label: pIC50

Some solved cases for reference:
> print(dat)
                                   molecule     obs.value
1  Cc1c(C#Cc2cnc3ccc(N4CCC(O)CC4)nn23)cccc1C(=O)Nc1cc(Cl)cc(C(F)(F)F)c1  6.00 to 7.00
2  Cc1c(C#Cc2cnc3ccc(N4CCC(O)CC4)nn23)cccc1C(=O)Nc1cc(CN2CCN(C)CC2)cc(C(F)(F)F)c1  7.00 to 8.00
3  Cc1c(C#Cc2cnc3ccc(N4CCOCC4)nn23)cccc1C(=O)Nc1cc(CN2CCN(C)CC2)cc(C(F)(F)F)c1  7.00 to 8.00

Turning to the following compound.
// field: pIC50; key: Cc1cn(-c2cc(NC(=O)c3cccc(C#Cc4cnc5ccc(N6CCC(O)CC6)nn45)c3C)cc(C(F)(F)F)c2)cn1 ; value = 7.00 to 8.00

###

So I've got IC50 readings for TRKC (Homo sapiens, UniProt Q16288), take a look.

Some solved cases for reference:
> print(dat)
                                   compound     obs.value
1  Cc1c(C#Cc2cnc3ccc(N4CCOCC4)nn23)cccc1C(=O)Nc1cc(C(F)(F)F)cc(C(F)(F)F)c1 [XS4-76]  10 to 100 nM
2  Cc1c(C#Cc2cnc3ccc(N4CCC(N(C)C)CC4)nn23)cccc1C(=O)Nc1cccc(C(F)(F)F)c1 [XS3-57]       < 10 nM
3  Cc1c(C#Cc2cnc3ccc(N4CCC(O)CC4)nn23)cccc1C(=O)Nc1cc(CN2CCN(C)CC2)cc(C(F)(F)F)c1 [XS3-81]       < 10 nM

// field: IC50; key: CC(=O)N1CCN(c2ccc3ncc(C#Cc4cccc(C(=O)Nc5cc(Cl)cc(C(F)(F)F)c5)c4C)n3n2)CC1 [XS3-54] ; value = < 10 nM

###

Items are presented alongside their recorded IC50.
Molecular target: BaF3-ETV6-NTRK2-V617M (Homo sapiens, UniProt Q16620, V601M)
Construct: constructed pCDNA3.1(+) plasmid vector carrying genes such as; fused on or other part: P41212 (Transcription factor ETV6)
Sequence (Q16620 538-822 V601M limits assumed): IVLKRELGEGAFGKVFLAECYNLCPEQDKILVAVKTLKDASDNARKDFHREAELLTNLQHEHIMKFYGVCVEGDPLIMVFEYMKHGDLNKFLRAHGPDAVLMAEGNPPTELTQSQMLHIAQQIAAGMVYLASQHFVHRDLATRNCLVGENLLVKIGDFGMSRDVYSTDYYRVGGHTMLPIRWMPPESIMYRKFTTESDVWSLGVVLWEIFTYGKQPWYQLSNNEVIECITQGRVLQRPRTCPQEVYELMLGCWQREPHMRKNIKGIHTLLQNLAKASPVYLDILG
Experiment: Drug-resistant cell proliferation inhibition (CCK-8)
Settings: 72 hours, read-out: drug-resistant cell viability IC50

> print(dat)
                                   compound  obs.value
1  Cc1cn(-c2cc(NC(=O)c3cccc(C#Cc4cnc5ccc(N6CCC(O)CC6)nn45)c3C)cc(C(F)(F)F)c2)cn1 [XS3-87]    < 10 nM

// field: IC50; key: Cc1c(C#Cc2cnc3ccc(N4CCC(O)CC4)nn23)cccc1C(=O)Nc1cc(CN2CCN(C)CC2)cc(C(F)(F)F)c1 [XS3-81] ; value = < 10 nM

// field: IC50; key: Cc1c(C#Cc2cnc3ccc(N4CCOCC4)nn23)cccc1C(=O)Nc1cc(CN2CCN(C)CC2)cc(C(F)(F)F)c1 [XS3-68] ; value = < 10 nM

###

Assay: Pharmacokinetic and oral bioavailability tests in SD rats
Assay type: in vivo
Settings: Sprague-Dawley (SD), rat, plasma, oral, 10.0 mg/kg
measurement label: AUC(0-t) (µg·h/mL)
Write the number in µg·h/mL without appending the unit.

// field: AUC(0-t); key: Cc1c(C#Cc2cnc3ccc(N4CCC(O)CC4)nn23)cccc1C(=O)Nc1cc(Cl)cc(C(F)(F)F)c1 ; value = 561
